# credit: patent US20240051958A1

# Test system: Human Pan T cells
# procedure_text: IL-2 Release Detection Assay
# Format: cell-based
# condition_description: Top activation/DMSO control
readout_label: Activation fold
Output spec: single numeric token, no unit.

Requested read-out: Activation fold. Entry: COCCOc1cc2c(nc1Cl)c(N1CCC(c3nc4cc(C)ccc4o3)CC1)cc(=O)n2C
6.5

Requested read-out: Activation fold. Entry: COCCOc1cc2c(nc1C#N)c(N1CCC(c3nc4cc(C)ccc4o3)CC1)cc(=O)n2C
6.29

Requested read-out: Activation fold. Entry: Cc1ccc2oc(C3CCN(c4cc(=O)n(C)c5cc(OCCO)c(C#N)nc45)CC3)nc2c1
24.5

Requested read-out: Activation fold. Entry: Cc1ccc2oc(C3CCN(c4cc(=O)n(C)c5cc(OCCCO)c(C#N)nc45)CC3)nc2c1
25.6

Requested read-out: Activation fold. Entry: Cc1ccc2oc(C3CCN(c4cc(=O)n(C)c5ccc(C#N)nc45)CC3)nc2c1
17.7

Requested read-out: Activation fold. Entry: Cn1c(=O)cc(N2CCC(c3nc4cc(F)ccc4o3)CC2)c2nc(C#N)ccc21
8.5

Requested read-out: Activation fold. Entry: Cc1ccc2oc(C3CCN(c4cc(=O)n(C)c5cc(OC6CCOC6)c(C#N)nc45)CC3)nc2c1 (stereo not drawn)
10.1

Requested read-out: Activation fold. Entry: Cc1ccc2oc(C3CCN(c4cc(=O)n(C)c5cc(O[C@H]6CCOC6)c(C#N)nc45)CC3)nc2c1
8.5

Requested read-out: Activation fold. Entry: Cc1ccc2oc(N3CC=C(c4cc(=O)n(C)c5cc(OCCO)c(C#N)nc45)CC3)nc2c1
11.0
